molecular target: human CH24H (Homo sapiens, UniProt Q9Y6A2); construct: Using Full-Length Mammalian Gene Collection No. 4819975 (Invitrogen) as a template; made in house; host or cells: FreeStyle 293-F cells (transient transfection); cell lysate supernatant, not purified; experiment: Measurement of CH24H inhibitory activity (24-HC produced from [14C] cholesterol by human CH24H lysate); type: biochemical; details: test compound 1 μM, [14C] cholesterol 15 μM, 37° C., 5 hr, read-out: Inhibitory Rate (%) in 1 μM
Sequence (Q9Y6A2 whole entry): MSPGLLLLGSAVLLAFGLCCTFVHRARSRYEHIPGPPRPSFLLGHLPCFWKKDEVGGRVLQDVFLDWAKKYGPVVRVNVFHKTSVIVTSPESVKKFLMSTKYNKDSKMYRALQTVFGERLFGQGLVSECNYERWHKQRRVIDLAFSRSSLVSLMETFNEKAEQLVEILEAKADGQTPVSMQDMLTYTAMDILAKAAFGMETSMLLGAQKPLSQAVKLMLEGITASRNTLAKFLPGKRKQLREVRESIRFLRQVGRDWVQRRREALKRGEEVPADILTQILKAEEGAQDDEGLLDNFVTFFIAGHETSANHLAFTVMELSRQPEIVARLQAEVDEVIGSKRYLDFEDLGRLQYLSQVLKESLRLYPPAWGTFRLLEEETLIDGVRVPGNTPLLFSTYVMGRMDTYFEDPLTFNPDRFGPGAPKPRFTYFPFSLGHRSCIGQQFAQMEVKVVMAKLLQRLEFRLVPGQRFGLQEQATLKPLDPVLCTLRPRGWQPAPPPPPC
Binary classification by inhibition at 1 µM, with 90% as an inclusive lower bound for T; all other cases are F.

{"Sample smiles": "O=C(c1cnc2c(-n3cncn3)cc(C(F)(F)F)cn12)N1C2COCC1C2", "Group": "T"}
{"Sample smiles": "N#C[C@H]1CCCN1C(=O)c1cnc2c(-c3cnco3)cc(C(F)(F)F)cn12", "Group": "F"}
{"Sample smiles": "O=C(c1cnc2c(-c3cnco3)cc(Cl)cn12)N1C[C@@H]2C[C@H]1CO2", "Group": "F"}
{"Sample smiles": "O=C(c1cnc2c(-c3cnco3)cc(C(F)(F)F)cn12)N1CC2(COC2)C1", "Group": "T"}
{"Sample smiles": "O=C(NC1CCOCC1)c1cnc2c(-c3cnco3)cc(C(F)(F)F)cn12", "Group": "T"}
{"Sample smiles": "CC(=O)c1cc(-c2cnco2)c2ncc(C(=O)N3C[C@@H]4C[C@H]3CO4)n2c1", "Group": "F"}
{"Sample smiles": "O=C(c1cnc2c(-c3cnco3)cc(C(F)(F)F)cn12)N1CC(F)(F)C1", "Group": "T"}
